tested on: 958667-338-R-J2-PDC tumor spheroids viability; assay: Anticancer human tumor 958667-338-R-J2-PDC patient-derived colon adenocarcinoma cell line growth inhibition [PI3K]; details: second compound 0.01 µM; first compound 3.16 µM; stronger effect = lower value; spheroids with HUVEC and MSC
Criterion: viability, T/C strictly under 90%. Met: Y. Not met: N.

Some entries whose results are on file:
| molecule | discrete label |
| --- | --- |
| CC1(C)CCC(Nc2ncc(C(F)(F)F)c(-c3c[nH]c4c(P(C)(C)=O)c(C#N)ccc34)n2)CN1 (stereo not given) + CC(Nc1ccc2c(c1)OCCn1cc(N3C(=O)OCC3C(F)F)nc1-2)C(N)=O | Y |
| Cn1nccc1Nc1nccc(-c2ccn(C(CO)c3ccc(Cl)c(F)c3)c(=O)c2)n1 (stereo not given) + CC(Nc1ccc2c(c1)OCCn1cc(N3C(=O)OCC3C(F)F)nc1-2)C(N)=O | Y |
| C=CC(=O)N1CCN(c2nc(=O)n(-c3c(C)ccnc3C(C)C)c3nc(-c4c(O)cccc4F)c(F)cc23)C(C)C1 (stereo not given) + CC(Nc1ccc2c(c1)OCCn1cc(N3C(=O)OCC3C(F)F)nc1-2)C(N)=O | N |

Query: Quick check: does C=CC(=O)N1CCN(c2nc(=O)n(-c3c(C)ccnc3C(C)C)c3nc(-c4c(O)cccc4F)c(F)cc23)C(C)C1 (stereo not given) + COc1c(OCCCN2CCOCC2)ccc2c3n(c(=NC(=O)c4cnc(N)nc4)nc12)CCN3 have viability, T/C under 90%?
Result: N

* * *

Test system: 958667-338-R-J2-PDC tumor spheroids viability
Assay: Anticancer human tumor 958667-338-R-J2-PDC cell line growth inhibition [PI3K];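 also: spheroids exposed to compounds for seven days before readout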
Conditions: curve of first compound; second compound 0.1 µM; spheroids with HUVEC and MSC
Description: Combinatorial screen of targeted agents with the PI3K inhibitors inavolisib, alpelisib, duvelisib, and copanlisib in multi-cell type tumor spheroids A high-throughput screen of multi-cell type tumor spheroids was designed to identify active combinations of targeted small molecules and PI3K pathway inhibitors. […] Compounds. […] If the clinical Cmax for an agent had not been determined, the highest concentration tested was 10 microM. […]
Collected pIC50 values appear next to each entry.
pIC50 is defined as minus the log10 of a concentration measured in mol/L.

| compound | target desc | pIC50 |
| --- | --- | --- |
| CCCS(=O)(=O)Nc1ccc(F)c(C(=O)c2c[nH]c3ncc(-c4ccc(Cl)cc4)cc23)c1F + Cc1nc(NC(=O)N2CCCC2C(N)=O)sc1-c1ccnc(C(C)(C)C(F)(F)F)c1 | 958667-338-R-J2-PDC tumor spheroids viability | 5.26 |
| CC1(C)CCC(CN2CCN(c3ccc(C(=O)NS(=O)(=O)c4ccc(NCC5CCOCC5)c([N+](=O)[O-])c4)c(Oc4cnc5[nH]ccc5c4)c3)CC2)=C(c2ccc(Cl)cc2)C1 + COc1c(OCCCN2CCOCC2)ccc2c3n(c(=NC(=O)c4cnc(N)nc4)nc12)CCN3 | 958667-338-R-J2-PDC tumor spheroids viability | 5.42 |

Now for a further compound.
Query: Fill in the blank: the reported pIC50 of CC1(C)CCC(Nc2ncc(C(F)(F)F)c(-c3c[nH]c4c(P(C)(C)=O)c(C#N)ccc34)n2)CN1 (stereo not given) + CC(Nc1ccc2c(c1)OCCn1cc(N3C(=O)OCC3C(F)F)nc1-2)C(N)=O is ____.
Result: 5.33

* * *

test system: 958667-338-R-J2-PDC tumor spheroids viability; assay: Anticancer human tumor 958667-338-R-J2-PDC cell line growth inhibition [PI3K]; settings: second compound 1 µM; first compound 0.00949 µM; stronger effect = lower value; spheroids with HUVEC and MSC;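 also: spheroids exposed to compounds for seven days before readout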
recorded endpoint: viability, T/C (%)
Kindly provide the numeric value in % only, without the unit symbol.

Query: // lookup viability, T/C | system=958667-338-R-J2-PDC tumor spheroids viability | key= Cn1cnc2c(F)c(Nc3ccc(Br)cc3Cl)c(C(=O)NOCCO)cc21 + COc1c(OCCCN2CCOCC2)ccc2c3n(c(=NC(=O)c4cnc(N)nc4)nc12)CCN3
Result: 13.5

Query: // lookup viability, T/C | system=958667-338-R-J2-PDC tumor spheroids viability | key= Cn1cnc2c(F)c(Nc3ccc(Br)cc3Cl)c(C(=O)NOCCO)cc21 + Cc1nc(NC(=O)N2CCCC2C(N)=O)sc1-c1ccnc(C(C)(C)C(F)(F)F)c1
Result: 80

Query: // lookup viability, T/C | system=958667-338-R-J2-PDC tumor spheroids viability | key= Cn1cnc2c(F)c(Nc3ccc(Br)cc3Cl)c(C(=O)NOCCO)cc21 + CC(Nc1ncnc2nc[nH]c12)c1cc2cccc(Cl)c2c(=O)n1-c1ccccc1
Result: 73.3

Query: // lookup viability, T/C | system=958667-338-R-J2-PDC tumor spheroids viability | key= Cn1cnc2c(F)c(Nc3ccc(Br)cc3Cl)c(C(=O)NOCCO)cc21 + CC(Nc1ccc2c(c1)OCCn1cc(N3C(=O)OCC3C(F)F)nc1-2)C(N)=O
Result: 44.6

* * *

test system: 958667-338-R-J2-PDC tumor spheroids viability; experiment: Anticancer human tumor 958667-338-R-J2-PDC cell line growth inhibition [PI3K]; conditions: second compound 1 µM; first compound 0.949 µM; stronger effect = lower value; spheroids with HUVEC and MSC;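 also: spheroids exposed to compounds for seven days before readout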
Collected viability, T/C values appear next to each entry.

// below: answered compounds
| compound | viability, T/C |
| --- | --- |
| Cn1cnc2c(F)c(Nc3ccc(Br)cc3Cl)c(C(=O)NOCCO)cc21 + COc1c(OCCCN2CCOCC2)ccc2c3n(c(=NC(=O)c4cnc(N)nc4)nc12)CCN3 | 2.89% |
| Cn1cnc2c(F)c(Nc3ccc(Br)cc3Cl)c(C(=O)NOCCO)cc21 + CC(Nc1ncnc2nc[nH]c12)c1cc2cccc(Cl)c2c(=O)n1-c1ccccc1 | 33.9% |
| Cn1cnc2c(F)c(Nc3ccc(Br)cc3Cl)c(C(=O)NOCCO)cc21 + Cc1nc(NC(=O)N2CCCC2C(N)=O)sc1-c1ccnc(C(C)(C)C(F)(F)F)c1 | 14.7% |

Now for a further compound.
Query: Fill in the blank: the reported viability, T/C of Cn1cnc2c(F)c(Nc3ccc(Br)cc3Cl)c(C(=O)NOCCO)cc21 + CC(Nc1ccc2c(c1)OCCn1cc(N3C(=O)OCC3C(F)F)nc1-2)C(N)=O is ____.
Result: 11.5%

* * *

system: 958667-338-R-J2-PDC tumor spheroids viability; experiment: Anticancer human tumor 958667-338-R-J2-PDC cell line growth inhibition [PI3K]; settings: compound 1 µM; stronger effect = lower value; spheroids with HUVEC and MSC;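 also: spheroids exposed to compounds for seven days before readout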
Collected viability, T/C values appear next to each entry.

// below: answered compounds
| compound | target desc | viability, T/C |
| --- | --- | --- |
| CC1(C)CCC(Nc2ncc(C(F)(F)F)c(-c3c[nH]c4c(P(C)(C)=O)c(C#N)ccc34)n2)CN1 (stereo not given) | 958667-338-R-J2-PDC tumor spheroids viability | 66.5% [middle of 4 runs] |
| C#Cc1c(F)ccc2cc(O)cc(-c3ncc4c(N5CC6CCC(C5)N6)nc(OCC56CCCN5CC(F)C6)nc4c3F)c12 (stereo not given) | 958667-338-R-J2-PDC tumor spheroids viability | 97.3% [middle of 4 runs] |
| CCCS(=O)(=O)Nc1ccc(F)c(C(=O)c2c[nH]c3ncc(-c4ccc(Cl)cc4)cc23)c1F | 958667-338-R-J2-PDC tumor spheroids viability | 114% [middle of 4 runs] |

Query: Fill in the blank: the reported viability, T/C of COc1c(OCCCN2CCOCC2)ccc2c3n(c(=NC(=O)c4cnc(N)nc4)nc12)CCN3 is ____.
Result: 18.2% [middle of 8 runs]

Query: Fill in the blank: the reported viability, T/C of CC(Cn1ccc(-c2ccc(C#N)c(Cl)c2)n1)NC(=O)c1cc(C(C)O)[nH]n1 (stereo not given) is ____.
Result: 104% [middle of 4 runs]

Query: Fill in the blank: the reported viability, T/C of CC(Nc1ccc2c(c1)OCCn1cc(N3C(=O)OCC3C(F)F)nc1-2)C(N)=O (stereo not given) is ____.
Result: 64.9% [middle of 7 runs]

Query: Fill in the blank: the reported viability, T/C of CC(Nc1ncnc2nc[nH]c12)c1cc2cccc(Cl)c2c(=O)n1-c1ccccc1 (stereo not given) is ____.
Result: 90.8% [middle of 8 runs]

Query: Fill in the blank: the reported viability, T/C of Cn1nccc1Nc1nccc(-c2ccn(C(CO)c3ccc(Cl)c(F)c3)c(=O)c2)n1 (stereo not given) is ____.
Result: 86.6% [middle of 4 runs]

Query: Fill in the blank: the reported viability, T/C of Cn1ncc(Cl)c1-c1cc(C(=O)NC(CN)Cc2cccc(F)c2)sc1Cl (stereo not given) is ____.
Result: 74.7% [middle of 4 runs]

Query: Fill in the blank: the reported viability, T/C of C=CC(=O)N1CCN(c2nc(=O)n(-c3c(C)ccnc3C(C)C)c3nc(-c4c(O)cccc4F)c(F)cc23)C(C)C1 (stereo not given) is ____.
Result: 114% [middle of 4 runs]

Recorded values, source PubChem BioAssay AID1963963.
